Reference source: the supplement of paper PMC10201428

B1: library; a variant is named by its letters at N, in order (parent)
chain: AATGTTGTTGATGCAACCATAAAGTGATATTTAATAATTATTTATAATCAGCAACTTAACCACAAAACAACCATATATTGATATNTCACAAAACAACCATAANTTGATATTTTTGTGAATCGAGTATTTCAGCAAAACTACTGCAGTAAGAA

Variants of: B1
Assay: relative integration efficiency (T-LR orientation) vs wild-type transposon end (log2 (normalized fold change)); transposon end mutated: left end; higher = more efficient transposition
Details: with VchCAST RNA-guided transposition machinery (E. coli BL21(DE3) host, lacZ target)
Hi, to clarify the labels: met covers relative integration efficiency (log2) from -0.9 upward, not met covers anything below -0.9.

>>> print(df.to_string())
                                mutant_label  category
 0  TA A16C G24T T30A T76A T78A T84A C87A A96C T112G T113C       met
 1  CT A22C A23C G24T T25G T76G A77C T78G T79G A102C T104G T105G   not met
 2  TA A16C G24T T32G A33C T76A T78G C87A A102T T111C T113C   not met
 3                    CG T30A T31A T32A A33T       met
 4                              CG A90C A91C       met
 5                                   CG A83C       met
 6                    CG A66C A67C C68A A69C   not met
 7                                  CG T100G   not met
 8                                   CG T30G       met
 9                         CG C18A C72A C98A   not met
10                                   CG A19T       met
11                    CG A33C A34C T35G A36C       met
12                CG T113G T114G G115T T116G       met
13                            CG G124T T125G       met
14                              CG A16C C17A       met
15                    CG T38G T39G A40C T41G       met
16                            CG T108G A109C   not met
17  TA A23G G24T A33T T76A T78A T84A C87A A102T T111C T113C       met
18                    CG C63G A64T A65T A66T       met
19                                CG T3A G4C       met
20  CA A16C G24T T32G A33C T104A T110A T113A   not met
21                    CG T41A T42A T43A A44T       met
22        TA T76A A77G C87T A96C T110A T113A       met
23                              CG C55A T56G       met
24                    CG T57A A58T A59T C60G       met
25                    CG T25A G26C A27T T28A   not met
26                    CG A59C C60A C61A A62C       met
27                                  CG A102C   not met
28                    CG A95T A96T C97G C98G   not met
29                                   CG A92T       met
30                                   CG A69T       met
31                              CG G10T A11C   not met
32                                   CG T56G       met
33                        CG T25A T79A T105A   not met
34          TG G24A T30A T76A T78A T84A C87A       met
35                                    CG T9A       met
36  TA A16C G24T T32G A33C A70C T76A T86G A102T T111C T113C   not met
